residual activity values, listed per item
- MEASUREMENT TARGET: CDK4 CCND3 (human) (UniProt P30281+P11802)
- Sequence (P11802 whole entry, looked up): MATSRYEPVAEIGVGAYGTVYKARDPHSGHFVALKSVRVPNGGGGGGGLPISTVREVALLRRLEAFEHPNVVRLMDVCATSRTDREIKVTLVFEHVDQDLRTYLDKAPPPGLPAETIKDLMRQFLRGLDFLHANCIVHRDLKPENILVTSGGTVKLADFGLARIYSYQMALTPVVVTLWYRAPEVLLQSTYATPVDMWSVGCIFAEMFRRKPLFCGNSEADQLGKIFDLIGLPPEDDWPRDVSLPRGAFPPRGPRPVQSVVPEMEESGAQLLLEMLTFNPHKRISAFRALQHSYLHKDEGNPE
- Sequence (P30281 whole entry, looked up): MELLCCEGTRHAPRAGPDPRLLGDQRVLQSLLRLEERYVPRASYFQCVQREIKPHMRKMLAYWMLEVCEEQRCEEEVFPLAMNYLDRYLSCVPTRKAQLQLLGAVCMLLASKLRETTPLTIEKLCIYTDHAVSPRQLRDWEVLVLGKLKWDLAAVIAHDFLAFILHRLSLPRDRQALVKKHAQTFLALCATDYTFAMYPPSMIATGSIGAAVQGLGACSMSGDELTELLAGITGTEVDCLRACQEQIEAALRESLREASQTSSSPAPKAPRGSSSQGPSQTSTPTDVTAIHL
- TEST NAME: radiometric filter-binding kinase assay, Kinase HotSpot
- CONDITION SET: compound 0.5 µM; ATP 10 µM
Number in %, nothing else.

Known results for molecules:
COc1ccc(OC)c2c(=S)c3ccccc3[nH]c12 = 95.5
O=C1Nc2ccccc2/C1=C1/Nc2ccccc2/C1=N\OCCC(O)CO (configuration not stated) = 66.1
Cn1sc(=O)n(Cc2ccccc2)c1=O = 114

residual activity in this record for `COc1cc2ncnc(N3CCN(C(=O)Nc4ccc(Oc5ccccc5)cc4)CC3)c2cc1OC` : 90.3

residual activity in this record for `Cc1nc2cc3nc(-c4cccs4)cnc3cc2n1C` : 101

residual activity in this record for `O=C1Cc2c([nH]c3ccc(Br)cc23)-c2ccccc2N1` : 89

residual activity in this record for `O=C(O)/C=C/c1cc(Br)c(Br)c(Br)c1Br` : 97.9

residual activity in this record for `O=C(Nc1cccc(Nc2cc(Nc3cccc(C(F)(F)F)c3)ncn2)c1)C1CC1` : 105

residual activity in this record for `Cn1nc2c3c(cccc31)C(=O)c1ccccc1-2` : 92.4

residual activity in this record for `O=C(CCCc1ccc(-c2ccccc2F)cc1)Nc1ccc(O)cc1` : 110

residual activity in this record for `O=C1NC(=O)/C(=C\c2ccc3nccnc3c2)S1` : 93.9

residual activity in this record for `Nc1nnc2[nH]c3ccccc3nc1-2` : 94.8

---

- MEASUREMENT TARGET: DAPK2 (human)
- TEST NAME: radiometric filter-binding kinase assay, Kinase HotSpot
- CONDITION SET: compound 0.5 µM; ATP 10 µM
residual activity values, listed per item
Number in %, nothing else.

O=C(CCCc1ccc(-c2ccccc2F)cc1)Nc1ccc(O)cc1 = 106

residual activity in this record for `Cn1cnc2cc3c(Nc4cccc(Br)c4)ncnc3cc21` : 92.5

residual activity in this record for `CC(C)c1nn(-c2c(Cl)cccc2Cl)c2nc(Cc3ccc(OCCO)cc3)nc(O)c12` : 88.3

residual activity in this record for `O=C(Nc1cccc(Nc2cc(Nc3cccc(C(F)(F)F)c3)ncn2)c1)C1CC1` : 99

---

- MEASUREMENT TARGET: FGFR4 (human)
- TEST NAME: radiometric filter-binding kinase assay, Kinase HotSpot
- CONDITION SET: compound 0.5 µM; ATP 10 µM
residual activity values, listed per item
Number in %, nothing else.

Known results for compounds:
COc1cc2ncnc(N3CCN(C(=O)Nc4ccc(Oc5ccccc5)cc4)CC3)c2cc1OC = 99.7
O=C1Cc2c([nH]c3ccc(Br)cc23)-c2ccccc2N1 = 113
O=C1NC(=O)C(c2cn(CCCO)c3ncccc23)=C1c1cnccn1 = 91.5
Nc1nccc(-c2c(-c3ccc(F)cc3)ncn2C2CCNCC2)n1 = 85.7
COc1ccc(CNC(=O)Nc2ncc([N+](=O)[O-])s2)cc1 = 98.9
O=C1NC(=O)/C(=C\c2ccc3nccnc3c2)S1 = 98
O=C(O)/C=C/c1cc(Br)c(Br)c(Br)c1Br = 88.3
COc1ccc(OC)c2c(=S)c3ccccc3[nH]c12 = 91.1

Next item in the queue.
residual activity in this record for `CC(=O)O/N=C1\C(=C2\C(=O)Nc3cc(Br)ccc32)Nc2ccccc21` : 82.6
